# Assay Comment: reducers of endogenous Her2 protein level, primary screen, SKBR3 breast tumor cells, AlphaScreen, ATP viability (AID 461);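 note: percent of carrier control wells set as 100% viability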
# Protocol Conditions: 18-24 h, measured here: SKBR3 viability, ATP luminescence, at 10 µM
Measurement Label: viability (%)
Please reply with the bare figure in % and do not write the unit itself.

Given the entry COc1ccc(CNC(=O)C(c2ccco2)N(Cc2cccs2)C(=O)Cc2cccs2)cc1 (stereo not given) , report its measured viability.
96.5

Data request, read-out viability, for O=c1cc(C(F)F)oc2c1ccc1ccccc12
93.5

Quick one: viability of O=C(NCc1cccs1)C1CC(c2ccccc2O)=NO1 (stereo not given) ?
74

Give its viability value. Item: CC1(C)CC(=O)C(C=NCc2ccc3c(c2)OCO3)=C(O)C1
104

What value of viability has been recorded for this entry: Cc1cc(-c2ccccc2)nc2cc(C(N)=O)nn12
102

Report viability for O=C(NC1CCCc2ccccc21)C1CCN(c2nnc(-n3cccc3)s2)CC1 (stereo not given) please.
84.5

State the recorded viability for this entry: Cc1cc(Cn2ccnc2)c(C)cc1Cn1ccnc1
82

# viability lookup, item COc1ccc(Br)cc1C1N2CC3(C)CN1CC(C)(C2)C3=O (stereo not given)
114

Which viability value belongs to CC1(C)CC(=O)CC(C)(C)N1OC(=O)c1ccccn1 ?
106

====

Parameter viability: see the listing below.
# Assay Comment: growth inhibitors of H69AR lung tumor, primary screen, human, duplicate replicates (AID 580);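 note: 100% = mean luminescence of untreated wells and 0% = no signal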
# Protocol Conditions: H69AR lung tumor cells viability, ATP luminescence, 72 h; at 10 µM; stronger effect = lower value
Peptide text beside a SMILES is read from it. * marks the point of attachment. Boc = CC(C)(C)OC(=O)*
Numbers only here, please. The scale is %.

INSERT INTO assay_data (compound, endpoint_value) VALUES
  ('O=C(CCNC(=O)c1ccc(Br)o1)NC1CCCC1', 95.1),
  ('Cc1ccc(CN2C(=O)CCC2C(=O)NCCCN2CCCC(C)C2)cc1 (stereo unspecified)', 97.4),
  ('Cc1ccc(C(C)C)c(OCc2nnc(SCC(=O)Nc3ncc(C)s3)n2C)c1', 41.1);

// returns reported viability for input O=C(CN1C(=O)NC2(CCCCC2)C1=O)Nc1ccc(S(=O)(=O)N2CCOCC2)cc1
96.3

Query (compound): O=C(NCc1cccnc1)c1ccc(Cl)c(Cl)c1 ; field requested: viability
96.8

# viability lookup, item CSCCC(NC(=O)OC(C)(C)C)C(=O)NC(CC(C)C)C(N)=O (stereo not drawn) (Boc-Met-Leu-NH2; configuration not given here)
92

====

# Assay Comment: reversal of MRP1-mediated doxorubicin resistance, pilot screen, H69AR cells, doxorubicin co-treatment (AID 601)
# Protocol Conditions: H69AR cells + 2 uM doxorubicin, CellTiter-Glo, 72 h; measured here: viability with 2 uM doxorubicin; at 10 µM; stronger effect = lower value
Note to self: viability under 90% means Met, ties and anything higher get Not met.

Worked set:
INSERT INTO assay_data (compound, qualitative_label) VALUES
  ('CCCOc1cccc(NC(=O)c2c(-c3ccccc3)noc2C)c1', 'Not met'),
  ('CCc1c(C)c2ccc(OCC(=O)OC)cc2oc1=O', 'Not met');

Is viability strictly under 90% for the entry COc1ccc(C2C(C#N)=C(N)Oc3cc4c(cc32)OCO4)cc1 (stereo not drawn) ?
Met

Does the reported viability of the following compound sit strictly below 90%? O=C(Nc1cccc2c1CCCC2)C1CCN(c2nnnn2-c2ccccc2)CC1
Met
